molecular target: Exon19 deletion EGFR (Homo sapiens, UniProt P00533, DEL746-750); construct: Assays to measure cellular phosphorylation of endogenous p-EGFR in cell lysates; endogenous in cells; assay: Exon19 deletion EGFR (activating single mutant) cellular phosphorylation assay; conditions: PC9 human lung cells (Exon 19 deletion EGFR); endogenous p-EGFR in cell lysates by ELISA; 2 h with compound; read-out: Assay 1 (IC50)
Sequence (P00533 with tags, fused parts or gaps DEL746-750): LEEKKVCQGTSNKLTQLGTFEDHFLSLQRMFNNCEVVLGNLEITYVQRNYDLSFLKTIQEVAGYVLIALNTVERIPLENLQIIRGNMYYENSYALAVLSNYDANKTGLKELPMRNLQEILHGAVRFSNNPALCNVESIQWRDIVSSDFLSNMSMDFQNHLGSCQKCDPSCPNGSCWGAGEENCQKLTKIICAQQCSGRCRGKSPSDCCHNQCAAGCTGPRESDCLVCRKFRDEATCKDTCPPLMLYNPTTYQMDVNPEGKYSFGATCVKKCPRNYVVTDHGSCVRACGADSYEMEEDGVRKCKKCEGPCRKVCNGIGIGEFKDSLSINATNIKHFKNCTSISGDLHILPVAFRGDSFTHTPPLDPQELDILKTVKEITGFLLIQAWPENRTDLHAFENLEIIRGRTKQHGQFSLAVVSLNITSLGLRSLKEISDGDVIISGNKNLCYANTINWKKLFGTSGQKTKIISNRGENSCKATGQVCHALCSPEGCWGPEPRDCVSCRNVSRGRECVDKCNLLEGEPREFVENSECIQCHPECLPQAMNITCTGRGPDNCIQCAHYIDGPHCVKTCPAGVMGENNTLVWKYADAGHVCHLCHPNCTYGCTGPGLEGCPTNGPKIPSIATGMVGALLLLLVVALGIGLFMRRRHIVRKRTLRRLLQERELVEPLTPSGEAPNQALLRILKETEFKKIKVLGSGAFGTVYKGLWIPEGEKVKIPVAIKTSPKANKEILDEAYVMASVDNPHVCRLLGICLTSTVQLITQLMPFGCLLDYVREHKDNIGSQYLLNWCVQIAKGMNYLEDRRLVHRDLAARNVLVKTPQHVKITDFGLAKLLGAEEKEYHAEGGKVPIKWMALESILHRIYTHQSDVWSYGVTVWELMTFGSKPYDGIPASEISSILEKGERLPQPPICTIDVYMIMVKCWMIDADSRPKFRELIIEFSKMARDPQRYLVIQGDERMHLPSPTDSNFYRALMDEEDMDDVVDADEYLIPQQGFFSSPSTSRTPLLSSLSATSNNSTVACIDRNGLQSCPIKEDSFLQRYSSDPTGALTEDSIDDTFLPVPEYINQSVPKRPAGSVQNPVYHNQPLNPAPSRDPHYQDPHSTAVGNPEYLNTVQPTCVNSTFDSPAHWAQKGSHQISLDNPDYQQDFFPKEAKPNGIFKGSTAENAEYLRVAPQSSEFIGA
pIC50: −log10 of the molar value.
Label rule met when pIC50 >= 8; otherwise rule not met.

Reference set (3 entries):
C=CC(=O)Nc1cc(Nc2nccc(-c3cnn4c3CCCC4)n2)c(OC)cc1C1=CCN(C)CC1 rule not met
C=CC(=O)Nc1cc(Nc2ncc(Cl)c(-c3cnn4ccccc34)n2)c(OC)cc1N1CC2(CCCN2C)C1 rule not met
C=CC(=O)Nc1cc(Nc2nccc(-c3cnn4ccccc34)n2)c(OC)cc1N1CCN(C)CC1 rule not met

Can C=CC(=O)Nc1cc(Nc2ncc(C)c(-c3cn(C)c4ccccc34)n2)c(OC)cc1N(C)CCN(C)C be said to have pIC50 at or above 8?
rule met

Item: C=CC(=O)Nc1cc(Nc2nccc(-c3cn(C)c4ccccc34)n2)c(OC)cc1N1CC[C@@H]2CN(C)C[C@@H]21
rule not met

Now consider C=CC(=O)Nc1cc(Nc2ncc(Cl)c(-c3c[nH]c4ccccc34)n2)c(OC)cc1N1CC[C@@H](N(C)C)C1 .
rule met

Same question, C=CC(=O)Nc1cc(Nc2nccc(-c3cn(C)c4ccccc34)n2)c(OC)cc1N1CC(N(C)C)C1 this time
rule not met

Field entry: C=CC(=O)Nc1cc(Nc2ncc(Cl)c(-c3cnn4ccccc34)n2)c(OC)cc1N1CC[C@@H]2CN(C)C[C@@H]21
rule met

// same read-out, input: C=CC(=O)Nc1cc(Nc2ncc(Cl)c(-c3cnn4ccccc34)n2)c(OC)cc1N(C)CCN(C)C
rule met

Item: C=CC(=O)Nc1cc(Nc2ncc(Cl)c(-c3c[nH]c4ccccc34)n2)c(OC)cc1N(C)CCN(C)C
rule met

Now consider C=CC(=O)Nc1cc(Nc2nccc(-c3cnn4c3CCCC4)n2)c(OC)cc1N1CC(N(C)C)C1 .
rule not met

Okay, and C=CC(=O)Nc1cc(Nc2ncc(C#N)c(-c3cn(C)c4ccccc34)n2)c(OC)cc1N1CC[C@@H](N(C)C)C1 ?
rule met

Can you check C=CC(=O)Nc1cc(Nc2nccc(-c3cnn4ccccc34)n2)c(OC)cc1N(C)CCN(C)C next?
rule met

====

Target: Wild-type EGFR (Homo sapiens, UniProt P00533)
Construct: Assays to measure cellular phosphorylation of endogenous p-EGFR in cell lysates; endogenous in cells
Sequence (P00533 25-1210): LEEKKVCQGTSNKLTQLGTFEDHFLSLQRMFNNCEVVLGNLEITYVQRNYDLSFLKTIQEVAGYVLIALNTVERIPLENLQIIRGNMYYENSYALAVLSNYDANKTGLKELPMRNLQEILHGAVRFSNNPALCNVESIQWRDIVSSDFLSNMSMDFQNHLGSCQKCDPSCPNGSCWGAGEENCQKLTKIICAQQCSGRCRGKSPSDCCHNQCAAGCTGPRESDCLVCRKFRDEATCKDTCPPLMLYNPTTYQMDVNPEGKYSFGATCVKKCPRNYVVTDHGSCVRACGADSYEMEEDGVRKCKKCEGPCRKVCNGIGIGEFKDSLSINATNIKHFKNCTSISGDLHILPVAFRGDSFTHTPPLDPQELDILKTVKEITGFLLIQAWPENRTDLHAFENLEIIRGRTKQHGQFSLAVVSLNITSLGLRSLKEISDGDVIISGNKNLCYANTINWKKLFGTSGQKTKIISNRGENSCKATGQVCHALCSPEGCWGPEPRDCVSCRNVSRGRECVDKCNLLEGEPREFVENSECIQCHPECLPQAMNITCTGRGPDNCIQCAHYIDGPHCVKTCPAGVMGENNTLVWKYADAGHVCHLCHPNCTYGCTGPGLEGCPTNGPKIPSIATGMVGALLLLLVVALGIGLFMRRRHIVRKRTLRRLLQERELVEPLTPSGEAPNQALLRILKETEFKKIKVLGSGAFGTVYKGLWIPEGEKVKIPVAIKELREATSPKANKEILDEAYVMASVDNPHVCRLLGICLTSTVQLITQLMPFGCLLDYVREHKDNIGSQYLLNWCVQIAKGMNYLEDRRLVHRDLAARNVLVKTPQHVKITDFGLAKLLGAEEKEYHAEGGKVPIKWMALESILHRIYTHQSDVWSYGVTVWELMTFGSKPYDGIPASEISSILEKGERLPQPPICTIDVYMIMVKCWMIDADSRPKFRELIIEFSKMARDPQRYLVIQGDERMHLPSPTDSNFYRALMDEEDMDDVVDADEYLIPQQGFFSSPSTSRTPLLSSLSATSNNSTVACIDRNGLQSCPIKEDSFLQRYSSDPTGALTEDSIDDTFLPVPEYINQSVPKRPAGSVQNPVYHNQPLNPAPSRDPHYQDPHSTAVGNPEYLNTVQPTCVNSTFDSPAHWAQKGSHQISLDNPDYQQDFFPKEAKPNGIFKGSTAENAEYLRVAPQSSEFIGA
Assay: Wild-type EGFR cellular phosphorylation assay
Conditions: LoVo human colon cells; endogenous p-EGFR in cell lysates by ELISA; 2 h with compound, then stimulated 100 ng/ml for 10 minutes; read-out: Assay 3 (IC50)
Description: Assay 3: Wild-Type EGFR Cellular Phosphorylation Assay The human colon cell line LoVo were obtained from the American type Culture Collection. […] Cells were grown in a humidified incubator at 37° C. with 5% CO2. Assays to measure cellular phosphorylation of endogenous p-EGFR in cell lysates were carried out according to the protocol described in the R&D Systems DuoSet IC Human Phospho-EGF R ELISA (R&D Systems catalogue number #DYC1095). […]
Measured pIC50 of individual entries
Scale for pIC50: -log10 of concentration given in mol/L; no unit attached.

Which measured pIC50 value corresponds to C=CC(=O)Nc1cc(Nc2ncc(C#N)c(-c3cn(C)c4ccccc34)n2)c(OC)cc1N(C)CCN(C)C [Example 29] ?
7.33

====

target: L858R/T790M EGFR (Homo sapiens, UniProt P00533, L858R/T790M); construct: Assays to measure cellular phosphorylation of endogenous p-EGFR in cell lysates; endogenous in cells; assay: L858R/T790M EGFR (double mutant) cellular phosphorylation assay; conditions: NCI-H1975 human lung cells; endogenous p-EGFR in cell lysates by ELISA; 2 h with compound
Sequence (P00533 25-1210 T790M/L858R): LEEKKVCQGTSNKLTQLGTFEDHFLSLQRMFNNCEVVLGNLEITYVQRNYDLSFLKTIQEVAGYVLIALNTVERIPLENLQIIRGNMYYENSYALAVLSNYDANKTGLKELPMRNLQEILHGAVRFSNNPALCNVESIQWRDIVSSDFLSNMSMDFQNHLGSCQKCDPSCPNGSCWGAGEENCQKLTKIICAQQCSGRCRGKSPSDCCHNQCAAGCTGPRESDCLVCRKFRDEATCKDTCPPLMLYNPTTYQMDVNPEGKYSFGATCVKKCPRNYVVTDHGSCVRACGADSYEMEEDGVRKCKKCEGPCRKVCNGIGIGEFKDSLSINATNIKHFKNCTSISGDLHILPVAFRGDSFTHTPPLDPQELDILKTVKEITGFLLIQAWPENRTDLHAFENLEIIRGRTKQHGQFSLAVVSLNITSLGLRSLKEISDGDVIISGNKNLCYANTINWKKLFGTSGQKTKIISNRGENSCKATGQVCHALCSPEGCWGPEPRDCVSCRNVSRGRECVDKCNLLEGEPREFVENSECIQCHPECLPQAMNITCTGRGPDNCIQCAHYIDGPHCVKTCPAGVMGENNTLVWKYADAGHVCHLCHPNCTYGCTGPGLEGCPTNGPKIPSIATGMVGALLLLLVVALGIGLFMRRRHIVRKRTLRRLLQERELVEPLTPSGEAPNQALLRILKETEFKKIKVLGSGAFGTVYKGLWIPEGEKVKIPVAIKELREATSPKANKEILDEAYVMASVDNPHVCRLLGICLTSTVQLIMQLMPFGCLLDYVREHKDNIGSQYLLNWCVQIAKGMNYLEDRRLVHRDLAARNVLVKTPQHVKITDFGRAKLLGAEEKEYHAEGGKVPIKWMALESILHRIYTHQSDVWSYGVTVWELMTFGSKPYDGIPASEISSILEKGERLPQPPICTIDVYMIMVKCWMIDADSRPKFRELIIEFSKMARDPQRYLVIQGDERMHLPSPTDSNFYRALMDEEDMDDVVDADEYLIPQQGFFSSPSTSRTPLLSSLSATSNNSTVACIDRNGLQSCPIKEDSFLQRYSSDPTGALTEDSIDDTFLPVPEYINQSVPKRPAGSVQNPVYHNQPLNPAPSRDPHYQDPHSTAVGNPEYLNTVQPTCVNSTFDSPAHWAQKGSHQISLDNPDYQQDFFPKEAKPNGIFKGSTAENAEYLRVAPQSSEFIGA
QUANTITY MEASURED: IC50 (nM)
Write down the numeric answer in nM and omit the unit.

Solved entries:
C=CC(=O)Nc1cc(Nc2ncc(Cl)c(-c3cnn4ccccc34)n2)c(OC)cc1N1CC[C@@H](N(C)C)C1 1.6
C=CC(=O)Nc1cc(Nc2ncc(C)c(-c3cn(C)c4ccccc34)n2)c(OC)cc1N1CC(N(C)C)C1 6.77
C=CC(=O)Nc1cc(Nc2nccc(-c3c[nH]c4ccccc34)n2)c(OC)cc1N(C)CCN(C)C 3.02

Which measured IC50 value corresponds to C=CC(=O)Nc1cc(Nc2ncc(Cl)c(-c3cnn4ccccc34)n2)c(OC)cc1N1CCN(C(=O)[C@H](C)N)CC1 ?
18.7

====

molecular target: Exon19 deletion EGFR (Homo sapiens, UniProt P00533, DEL746-750); construct: Assays to measure cellular phosphorylation of endogenous p-EGFR in cell lysates; endogenous in cells; assay: Exon19 deletion EGFR (activating single mutant) cellular phosphorylation assay; settings: PC9 human lung cells (Exon 19 deletion EGFR); endogenous p-EGFR in cell lysates by ELISA; 2 h with compound; read-out: Assay 1 (IC50)
QUANTITY MEASURED: IC50 (nM)
Lab book: enter the figure in nM, no units written.

COMPOUND	UNIT STRING	IC50
C=CC(=O)Nc1cc(Nc2ncc(Cl)c(-c3cnn4ccccc34)n2)c(OC)cc1N1CC[C@H](N(C)C)C1 [Example 12]	nM	36.1
C=CC(=O)Nc1cc(Nc2nccc(-c3cnn4ccccc34)n2)c(OC)cc1C1=CCN(C)CC1 [Example 51]	nM	13
C=CC(=O)Nc1cc(Nc2nccc(-c3cn(C)c4ccccc34)n2)c(OC)cc1N1CC2(CCCN2C)C1 [Example 49]	nM	74.2

Here is another compound to look at.
Bench note: what IC50 did C=CC(=O)Nc1cc(Nc2ncc(C)c(-c3cn(C)c4ccccc34)n2)c(OC)cc1N1CC[C@@H](N(C)C)C1 [Example 20] show?
7.49

====

target: L858R/T790M EGFR (Homo sapiens, UniProt P00533, L858R/T790M); construct: Assays to measure cellular phosphorylation of endogenous p-EGFR in cell lysates; endogenous in cells; assay: L858R/T790M EGFR (double mutant) cellular phosphorylation assay; details: NCI-H1975 human lung cells; endogenous p-EGFR in cell lysates by ELISA; 2 h with compound
QUANTITY MEASURED: IC50 (nM)
Could you give me the number in nM? Just the number is fine.

Consider the following illustrative entries.
C=CC(=O)Nc1cc(Nc2nccc(-c3cn(C)c4ccccc34)n2)c(OC)cc1N(C)CCNC 48.9
C=CC(=O)Nc1cc(Nc2nccc(-c3cnn4ccccc34)n2)c(OC)cc1N1CCN(C)CC1 70.5
C=CC(=O)Nc1cc(Nc2ncc(C#N)c(-c3cnn4ccccc34)n2)c(OC)cc1N1CCN(C)CC1 19.1

What IC50 value was documented for this compound, C=CC(=O)Nc1cc(Nc2ncc(C#N)c(-c3cnn4ccccc34)n2)c(OC)cc1N1CC[C@@H](N(C)C)C1 ?
4.41

====

target: Wild-type EGFR (Homo sapiens); construct: Assays to measure cellular phosphorylation of endogenous p-EGFR in cell lysates; endogenous in cells; test: Wild-type EGFR cellular phosphorylation assay; conditions: LoVo human colon cells; endogenous p-EGFR in cell lysates by ELISA; 2 h with compound, then stimulated 100 ng/ml for 10 minutes; read-out: Assay 3 (IC50)
# maps each entry to its IC50

Solved entries:
C=CC(=O)Nc1cc(Nc2ncc(Cl)c(-c3cnn4ccccc34)n2)c(OC)cc1N1CC[C@@H]2CN(C)C[C@@H]21 161 nM
C=CC(=O)Nc1cc(Nc2nccc(-c3cnn4ccccc34)n2)c(OC)cc1N1CC(N(C)C)C1 2640 nM
C=CC(=O)Nc1cc(Nc2nccc(-c3cnn4ccccc34)n2)c(OC)cc1N1CCN(C)CC1 > 18900 nM

Name the reported IC50 value associated with the compound C=CC(=O)Nc1cc(Nc2ncc(Cl)c(-c3cnn4ccccc34)n2)c(OC)cc1C1=CCN(C)CC1
874 nM

====

Quick list: pIC50 per entry.
target: Wild-type EGFR (Homo sapiens); construct: Assays to measure cellular phosphorylation of endogenous p-EGFR in cell lysates; endogenous in cells; assay: Wild-type EGFR cellular phosphorylation assay; settings: LoVo human colon cells; endogenous p-EGFR in cell lysates by ELISA; 2 h with compound, then stimulated 100 ng/ml for 10 minutes; read-out: Assay 3 (IC50)
Scale: pIC50 equals -log10([C]), with [C] in mol/L.

Example entries and their recorded answers appear below.
C=CC(=O)Nc1cc(Nc2ncc(Cl)c(-c3cn(C)c4ccccc34)n2)c(OC)cc1N1CC(N(C)C)C1 6.82
C=CC(=O)Nc1cc(Nc2ncc(Cl)c(-c3cnn4ccccc34)n2)c(OC)cc1N1CC2(CCCN2C)C1 5.93

Turning now to a further compound:
I'd like to know its pIC50. The compound in question is C=CC(=O)Nc1cc(Nc2ncc(C#N)c(-c3cnn4ccccc34)n2)c(OC)cc1N1CC[C@@H](N(C)C)C1
6.27
